- EXPERIMENT DESCRIPTION: NCI Yeast Anticancer Drug Screen. Data for the cln2 rad14 strain (AID 165);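 also: 0% = growth equal to vehicle treated cultures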
- MEASUREMENT CONTEXT: S. cerevisiae cln2 rad14 strain, active compounds read high; at 50.0 µM unless noted
The panel holds about 79,000 compounds, 15% with a hit somewhere; the sample as a whole holds those more often.
Output Fulfilled for growth inhibition not less than 10%; output Not fulfilled otherwise.

>>> discrete_label("Cc1c2n(c(=O)[nH]c1=O)C1OC(CO)C(O2)C1N=[N+]=[N-] (centres undefined)")
"Not fulfilled"
>>> discrete_label("COc1cc(C(=O)N2CCOC23CCN(Cc2ccccc2)CC3)cc(OC)c1OC")
"Fulfilled"
>>> discrete_label("CNc1cc([N+](=O)[O-])ccc1Br")
"Not fulfilled"

Input line: For this molecule, is measured growth inhibition 10% or higher? `COc1ccc2c3c(ccc2c1)[C@@H]1C/C(=C(\OC(C)=O)C(F)(F)F)C(=O)[C@@]1(C)CC3`
Output line: Fulfilled

Input line: For this molecule, is measured growth inhibition 10% or higher? C=CCCCC12CCCc3cccc(c31)NC2=O (centres undefined)
Output line: Fulfilled

Input line: Does `O=C(c1ccccc1)c1ccc2ccccc2c1` have a reported growth inhibition of at least 10%?
Output line: Not fulfilled

Input line: API: above_or_equal(metric=growth inhibition, cutoff=10%) for item `CCOC(=O)/C(C#N)=C/c1ccccc1Cl`
Output line: Fulfilled

Input line: Determine whether this molecule has growth inhibition no lower than 10%: `CC(=O)NNS(=O)(=O)c1ccccc1`
Output line: Not fulfilled

Input line: Can `CN=c1ss/c(=N\C(=S)N(C)C)n1C1CCCCC1` be said to have growth inhibition at or above 10%?
Output line: Fulfilled

----------
List of growth inhibition values.
- EXPERIMENT DESCRIPTION: NCI Yeast Anticancer Drug Screen. Data for the mec2-1 strain (AID 157)
- MEASUREMENT CONTEXT: S. cerevisiae mec2-1 strain, active compounds read high; at 50.0 µM unless noted
- Procedure: Growth inhibition of yeast strains with defined genetic alterations is measured as a screen for potential anti-cancer activity. Selected strains with alterations in DNA damage repair or cell cycle control were exposed to compounds and growth inhibition was measured relative to vehicle treated controls. The strain used in this assay is mec2-1
The panel holds about 79,000 compounds, 15% with a hit somewhere; the sample as a whole holds those more often.
Expressed in %, but write only the number.

>>> quantitative_result("CN1c2ccccc2C(=O)N2C(=O)CCC21C (stereo not drawn)")
-15.4

For this compound ( `Cc1cc(C)nc(NS(=O)(=O)c2ccc(NC(=O)NC(F)(F)F)cc2)n1` ), measured growth inhibition is -30.2

According to the records, this compound `Cc1ccc(N=C2S/C(=C3/CCC=C3N3CCOCC3)N(c3ccc(Cl)cc3)C2=Nc2ccc(C)cc2)cc1` displays growth inhibition of -13.4

----------
- EXPERIMENT DESCRIPTION: NCI Yeast Anticancer Drug Screen. Data for the cln2 rad14 strain (AID 165);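 also: 0% = growth equal to vehicle treated cultures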
- MEASUREMENT CONTEXT: S. cerevisiae cln2 rad14 strain, active compounds read high; at 50.0 µM unless noted
About 79,000 compounds went through this panel and 15% of them were active in at least one assay; those are over-represented in the sample as a whole. Active and inactive are the calls of the source. Rule as the data show it: active = growth inhibition above about 70%; inactive = the rest.
Form field: growth inhibition (one value per entry).

>>> result("CC(=O)CC(C[N+](=O)[O-])c1ccccc1 (centres undefined)")
"-28.5% (inactive)"

# growth inhibition of O=C(O)CC(c1ccccc1)C(CC(=O)O)c1ccccc1 (centres undefined) = 17.2% (inactive)

So for `Cc1cc(Cl)c(OCC(=O)O)cc1C` , the logged growth inhibition turned out to be -8.3% (inactive)

So for `O=C(O)Nc1ccc(I)cc1` , the logged growth inhibition turned out to be -25.9% (inactive)

`COc1cccc(/C=C/C(C)=N/NC(N)=O)c1` yielded growth inhibition of -7.1% (inactive)

Summary for this compound, `CC(C)(Nc1ccccc1)C(=O)OC(C)(C)C(=O)Nc1ccccc1` : growth inhibition is 2.05% (inactive)

Sample `CCOC(=O)C1=C(O)c2ccccc2C(=O)C1=O` ; growth inhibition observed: 11.3% (inactive)

The value of growth inhibition measured for the compound COC(=O)CCC1(C)C2CCC1(C)/C(=N/O)C2 (centres undefined) turned out to be 0.45% (inactive)

----------
- EXPERIMENT DESCRIPTION: NCI Yeast Anticancer Drug Screen. Data for the rad50 strain (AID 155);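 also: 0% = growth of vehicle-only cultures of the same strain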
- MEASUREMENT CONTEXT: S. cerevisiae rad50 strain growth inhibition; at 50.0 µM unless noted
About 79,000 compounds went through this panel and 15% of them were active in at least one assay; those are over-represented in the sample as a whole. Active and inactive are the calls of the source. No stated cut-off is given here; in the data, active means growth inhibition above about 70%; inactive means the rest.
Hello, when you answer, please use one of the following outcomes: 1 (yes) for active, 0 (no) for inactive

>>> discrete_label("O=C(Nc1cc(Cl)c(Cl)cc1Cl)C(=O)C(C(=O)c1ccc(Cl)c(Cl)c1)C1OC(=O)c2ccccc21 (configuration not stated)")
"0 (no)"

Input line: Which outcome did this test record for the compound `CC(=O)c1oc2cc([N+](=O)[O-])c3ccccc3c2c1C` ?
Output line: 0 (no)

Input line: Hi, do you know how `CC(C)=NNC(=O)c1ccc(N)cc1` came out in this test?
Output line: 0 (no)

----------
Listing of recorded growth inhibition by entry.
- EXPERIMENT DESCRIPTION: NCI Yeast Anticancer Drug Screen. Data for the cln2 rad14 strain (AID 165);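 also: 0% = growth equal to vehicle treated cultures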
- MEASUREMENT CONTEXT: S. cerevisiae cln2 rad14 strain, active compounds read high; at 50.0 µM unless noted
Compounds without any hit were thinned out: in the full panel of roughly 79,000, 15% have a hit.
Quick note: give the figure in %, leave out the unit.

Solved entries (count: 6):
>>> quantitative_result("NCCCCCN")
12.3
>>> quantitative_result("COc1ccc(CC(C)NN)cc1 (configuration not stated)")
95.7
>>> quantitative_result("COC1OC(CI)C(O)C(O)C1O (configuration not stated)")
-24.2
>>> quantitative_result("C/C=C(/Br)C(=O)O")
-53.5
>>> quantitative_result("COC(=O)CCC(=O)Nc1cc(C)ccc1C")
4.5
>>> quantitative_result("Nc1ccccc1C1CCCCC1")
-19.4

Data point: `Cc1cccc(C2=N/C(=C\c3ccc(N(C)C)cc3)C(=O)O2)c1` ; growth inhibition = 18.2

compound `CCc1ccccc1NC(=O)C(=O)CC(=O)c1sc(Nc2ccccc2Cl)nc1C` , growth inhibition observed: -16.6

Record `CCc1cc(C(=O)OC/C(C)=N/O)c2ccccc2n1` , field growth inhibition: -18.4

growth inhibition measured on `Clc1ccc(-c2cn3c(nc4ccccc43)c(-c3ccccc3)n2)cc1` = 2.35

Notebook: `Nc1nc(N)c2ncn(Cc3ccccc3)c2n1` , growth inhibition read as -14.1

----------
- EXPERIMENT DESCRIPTION: NCI Yeast Anticancer Drug Screen. Data for the mec2-1 strain (AID 157)
- MEASUREMENT CONTEXT: S. cerevisiae mec2-1 strain; at 50.0 µM unless noted
Compounds without any hit were thinned out: in the full panel of roughly 79,000, 15% have a hit. The source made the active and inactive calls. Cut-off read from the data, not from the text of the source: active = growth inhibition above about 70%; inactive = the rest.
Could you please pick one outcome from this set? YES = active, NO = inactive

Past entries and their recorded results:
>>> discrete_label("C=CC(=O)OCCN(CCCC)CCCC")
"NO"
>>> discrete_label("CCc1c(C)[nH]c2ccc([N+](=O)[O-])cc12")
"NO"
>>> discrete_label("OC1(c2nccc3ccccc23)CCN(CCc2ccccc2)CC1")
"NO"
>>> discrete_label("CCCCCCN1COCC(COc2ccc(Cl)cc2)OC1 (centres undefined)")
"NO"
>>> discrete_label("Cc1ccc(-c2c(C)c(-c3ccccc3)c(-c3ccccc3)c(C)c2-c2ccccc2)cc1C")
"YES"
>>> discrete_label("CSC(N)=Nc1cccc2ccccc12")
"NO"
>>> discrete_label("Cc1cc(Cl)ccc1N=C1NC(=O)C(CC(=O)Nc2ccc([N+](=O)[O-])cc2[N+](=O)[O-])S1 (centres undefined)")
"NO"
>>> discrete_label("COCCCC(=O)CNC(C)C")
"NO"

Input line: Field: outcome | Entry: `Cc1cc(OCC(=O)O)cc(C)c1C`
Output line: NO

----------
- EXPERIMENT DESCRIPTION: NCI Yeast Anticancer Drug Screen. Data for the mec2-1 strain (AID 157)
- MEASUREMENT CONTEXT: S. cerevisiae mec2-1 strain, active compounds read high; at 50.0 µM unless noted
The panel holds about 79,000 compounds, 15% with a hit somewhere; the sample as a whole holds those more often.
PROPERTY: growth inhibition (%)
Just the number please, in %, no unit attached.

For orientation, consider the following solved cases.
>>> quantitative_result("C=C(Br)CNC(=O)C(O)(c1ccccc1)c1ccccc1")
3.65
>>> quantitative_result("CCOc1ccccc1N1CCN(CC(O)CSc2ccccc2)CC1 (stereo not given)")
-9.25
>>> quantitative_result("C/C=C(\\C)c1cc(=O)c2c(C)cc3c(c2o1)C(OC)(OC(C)=O)c1c(O)c(C2CC(C)(N(C)C)C(OC(C)=O)C(C)O2)cc(C2CC(N(C)C)C(OC(C)=O)C(C)O2)c1C3=O (stereo not given)")
-28.3

GET /value?item= CC(C)CCCC(C)C1CCC2C3CC4OC45CC(O)CCC5(C)C3CCC12C (stereo not given) &field=growth inhibition returns 18.1

Just so you know, measured growth inhibition for CC1=Nc2ccccc2SC2(C1)C(C1COC(C)(C)O1)OC1OC(C)(C)OC12 (stereo not given) came out at 11.1

Notebook: `Cc1no[n+]([O-])c1/C=N/NS(=O)(=O)c1ccccc1` , growth inhibition read as -17.6

For reference, reported growth inhibition for `Cc1cccc[n+]1C` stands at 4.35
